Measured Percent Effect values are reported for all entries that follow.
tested on: Mycobacterium tuberculosis; assay: Cornell - Phenotypic assay to identify agents that inhibit growth of Mycobacterium tuberculosis; type: functional; set-up: scale not given: direction of the effect not stated beside the values; settings: 10 mM as filed; unlikely as a test dose
Among all 53,000 compounds or so, about 900 (1.7%) showed an effect of 50% or more. The list comes from a sample in which strong results are over-represented; it also holds close analogues and randomly drawn compounds.

>  <MOLECULE>
Cc1cnn(C2CN(Cc3nc(-c4ccsc4)no3)C2)c1

>  <Percent Effect>
18.79%

$$$$
>  <MOLECULE>
Cc1noc(C(C)N2CCc3[nH]c4ccc(Cl)cc4c3C2)n1 (configuration not stated)

>  <Percent Effect>
63.72%

$$$$
>  <MOLECULE>
COc1cc(CNCc2c(C)nn(C)c2N(C)C)ccc1C

>  <Percent Effect>
13.2%

$$$$
>  <MOLECULE>
Cc1nn(C)c(N(C)C)c1CNC(C)c1cccc(OC(C)C)c1 (configuration not stated)

>  <Percent Effect>
54.17%

$$$$
>  <MOLECULE>
CCOC(=O)CCC(=O)N1CCC(CSCc2ccco2)CC1

>  <Percent Effect>
59.48%

$$$$
>  <MOLECULE>
Cc1nnc(C(C)N2CCc3[nH]c4ccccc4c3C2)o1 (configuration not stated)

>  <Percent Effect>
28.26%

$$$$
>  <MOLECULE>
COc1cc(CNCc2c(C)nn(CC(C)C)c2N(C)C)ccn1

>  <Percent Effect>
-17.24%

$$$$
>  <MOLECULE>
Cc1cccc(C2(O)CCN(Cc3ccccc3N3CCCC3)CC2)c1

>  <Percent Effect>
33.4%

$$$$
>  <MOLECULE>
COc1ncccc1CNCc1c(C(C)C)nn(C)c1N(C)C

>  <Percent Effect>
63.07%

$$$$
>  <MOLECULE>
COCCN(C)C(C(=O)O)c1ccc(Cl)c(F)c1 (configuration not stated)

>  <Percent Effect>
-23.65%

$$$$
>  <MOLECULE>
CNc1nc(C(=O)NCc2cccnc2N(C)C2CCCCC2)cs1

>  <Percent Effect>
51.53%

$$$$
>  <MOLECULE>
COCCn1c(CN2CCCO2)cnc1S(=O)(=O)CC1CCCCC1

>  <Percent Effect>
19.4%

$$$$
>  <MOLECULE>
CCOc1ncccc1CNCc1c(C(C)C)nn(C)c1N(C)C

>  <Percent Effect>
-29.31%

$$$$
>  <MOLECULE>
CNS(=O)(=O)c1ccc(C(=O)NC2CCOc3ccccc32)o1 (configuration not stated)

>  <Percent Effect>
7.684%

$$$$
>  <MOLECULE>
CCc1cnc(CN(C(C)=O)C2CCN(CCc3ccccc3)C2)o1 (configuration not stated)

>  <Percent Effect>
-5.219%

$$$$
>  <MOLECULE>
CSCCCNC(=O)C(c1ccccc1C)N(C)C (configuration not stated)

>  <Percent Effect>
37.97%

$$$$
>  <MOLECULE>
O=C1CCC2(CCN(Cc3ccsc3)CC2)N1Cc1ccccc1

>  <Percent Effect>
26.5%

$$$$
>  <MOLECULE>
COc1ncccc1CNCc1c(C(C)C)nn(C)c1OC

>  <Percent Effect>
20.17%

$$$$
>  <MOLECULE>
O=C(NC[C@]12COC[C@H]1CN(CC1CCOCC1)C2)c1ccccc1.O=C(O)C(F)(F)F

>  <Percent Effect>
14.72%

$$$$
>  <MOLECULE>
CC(C)N1CCCC1c1cc(CCO)[nH]n1 (configuration not stated)

>  <Percent Effect>
11.54%

$$$$
>  <MOLECULE>
Cn1nc2c(c1NC(=O)c1cccs1)CCC2

>  <Percent Effect>
1.253%

$$$$
>  <MOLECULE>
Cc1cnn(C2CN(Cc3nnc(Cc4ccccc4)o3)C2)c1

>  <Percent Effect>
75.37%

$$$$
>  <MOLECULE>
Cc1ccccc1CSc1ncc(Br)c(C(=O)O)n1

>  <Percent Effect>
12.49%

$$$$
>  <MOLECULE>
COc1cc(C(=O)N(CCC#N)Cc2ccccn2)ccc1C

>  <Percent Effect>
2.226%

$$$$
>  <MOLECULE>
O=C(Nc1ccccc1)c1ccc(NCc2ccncc2)nn1

>  <Percent Effect>
71.71%

$$$$
>  <MOLECULE>
Cc1cnn(C2CN(Cc3nc4cc(Cl)ccc4n3C)C2)c1

>  <Percent Effect>
63.15%

$$$$
>  <MOLECULE>
CC(=O)N1CCC(CSCc2ccco2)CC1

>  <Percent Effect>
7.881%

$$$$
>  <MOLECULE>
Cc1noc(C)c1C(=O)N1CCCC1(C)C(=O)NC1CCCC1 (configuration not stated)

>  <Percent Effect>
-3.819%

$$$$
>  <MOLECULE>
O=C(Nc1ccccc1)c1ccc(NCc2nccs2)nn1

>  <Percent Effect>
40.64%

$$$$
>  <MOLECULE>
CC(C)c1nn(C)c(N(C)C)c1CNCc1ccnn1C

>  <Percent Effect>
65.83%

$$$$
>  <MOLECULE>
Cc1nn(C)c(N(C)C)c1CNC(C)Cc1c(F)cccc1F (configuration not stated)

>  <Percent Effect>
29.42%

$$$$
>  <MOLECULE>
C=C/C=c1\c(=C/C)oc2c(NCc3ccccc3)nc(C)nc12

>  <Percent Effect>
70.49%

$$$$
>  <MOLECULE>
Cc1cc(C)n(C2CN(Cc3nc4cc(Cl)ccc4n3C)C2)n1

>  <Percent Effect>
-28.71%

$$$$
>  <MOLECULE>
Cc1nc2c(c(NCc3ccc(-c4ccccn4)s3)n1)CCNCC2

>  <Percent Effect>
10.6%

$$$$
>  <MOLECULE>
COc1ccc2c3c1CN(C(=O)N(C)C)CC3=CC(C)(C)CO2

>  <Percent Effect>
89.58%

$$$$
>  <MOLECULE>
COc1ccc2c3c1CN(C(C)=O)CC3=CC(C)(C)CO2

>  <Percent Effect>
9.21%

$$$$
>  <MOLECULE>
Cc1nn(C)c(N(C)C)c1CNC(C)COc1cccc(F)c1 (configuration not stated)

>  <Percent Effect>
24.93%

$$$$

The values you see were collected from ChEMBL document CHEMBL3988442.
